System Under Test: T1, human formyl peptide receptor FPR1 (human, UniProt P21462 1-350)
T1 sequence (looked up): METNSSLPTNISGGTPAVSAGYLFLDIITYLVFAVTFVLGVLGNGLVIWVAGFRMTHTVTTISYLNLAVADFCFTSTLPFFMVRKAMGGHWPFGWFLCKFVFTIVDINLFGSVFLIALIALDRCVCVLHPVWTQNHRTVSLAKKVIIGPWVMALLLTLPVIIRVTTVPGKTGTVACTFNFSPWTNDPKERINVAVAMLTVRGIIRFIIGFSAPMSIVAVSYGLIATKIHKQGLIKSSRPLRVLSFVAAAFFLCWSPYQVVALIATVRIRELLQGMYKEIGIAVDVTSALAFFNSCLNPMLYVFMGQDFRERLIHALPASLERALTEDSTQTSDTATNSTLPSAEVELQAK
Protocol Summary: cell-based or functional assay
Ends that are not written are not given here. * marks the point of attachment. For = O=C*
Each record here notes measured EC50(nM), transient Ca2+ flux in HEK293/Gα16 cells expressing FPR1.

binder="For-Met-Leu-Phe [fMLP, formyl-MLF]" test_value="< 0.3 nM"

Input: I have this binder here, SLLWLTCRPWEAM [peptide A5, Ser-Leu-Leu-Trp-Leu-Thr-Cys-Arg-Pro-Trp-Glu-Ala-Met] , and I need its recorded EC50(nM), transient Ca2+ flux in HEK293/Gα16 cells expressing FPR1.
Output: > 10000 nM

Input: I have this binder here, LESIFRSLLFRVM [peptide MMK-1] , and I need its recorded EC50(nM), transient Ca2+ flux in HEK293/Gα16 cells expressing FPR1.
Output: > 10000 nM

Input: I have this binder here, PPFFFRPVGMF [peptide DM-1] , and I need its recorded EC50(nM), transient Ca2+ flux in HEK293/Gα16 cells expressing FPR1.
Output: > 10000 nM

Input: I have this binder here, MMWLL [peptide MMWLL, Met-Met-Trp-Leu-Leu] , and I need its recorded EC50(nM), transient Ca2+ flux in HEK293/Gα16 cells expressing FPR1.
Output: < 0.3 nM

Origin of values: patent US20030009022A1
